Recorded PBM E-score of 8-mer values for a group of sequences are listed next.
System: SpTbr T-box DNA-binding domain (GST fusion);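 also: protein at 200 nM in PBS on universal double-stranded arrays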
Sequence: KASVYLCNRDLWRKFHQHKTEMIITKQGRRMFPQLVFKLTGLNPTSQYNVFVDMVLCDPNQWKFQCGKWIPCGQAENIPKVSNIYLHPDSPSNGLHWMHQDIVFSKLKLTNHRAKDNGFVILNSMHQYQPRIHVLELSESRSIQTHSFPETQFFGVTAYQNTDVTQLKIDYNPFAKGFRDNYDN
PROTOCOL: PBM E-score of 8-mer (E-score (dimensionless, -0.5 to 0.5)); Tbr is Tbrain of the sea star Patiria miniata (Pm) or the sea urchin Strongylocentrotus purpuratus (Sp); higher = stronger binding preference
RUN_PARAMETERS: the construct has about 5 more residues each side
In all, about 33,000 sequences were measured (“E-score (dimensionless, -0.5 to 0.5)”: median about -0.046, highest 2% from about 0.36 on). Many of the other results were omitted from the sample, so the highest values are more common in it than they were.
Give a plain numeric answer without units written out.

Worked examples follow.
• CTTCCTCC = -0.204
• ACGGCAGT = -0.173
• CACCTTCA = 0.412
• ACGGGCGG = -0.083
• GATTCACC = -0.0546
• AATTCACA = 0.297
• CATTCACC = -0.0478
• CGTCACAC = 0.43
• AGGCAGAT = -0.0669
• CGACTGCA = -0.155

// returns reported PBM E-score of 8-mer for input CTGTGGAA 0.061

// returns reported PBM E-score of 8-mer for input ATGGGGGG -0.172

// returns reported PBM E-score of 8-mer for input GGTCACAA 0.207

// returns reported PBM E-score of 8-mer for input GATCACAA 0.251

// returns reported PBM E-score of 8-mer for input CATTCGCC -0.147

// returns reported PBM E-score of 8-mer for input CACCTTCC 0.401

// returns reported PBM E-score of 8-mer for input AGTCACAT 0.132

// returns reported PBM E-score of 8-mer for input AAGGGGCA -0.297

// returns reported PBM E-score of 8-mer for input CTGTGTGA 0.341

// returns reported PBM E-score of 8-mer for input CAGAAACC -0.106

// returns reported PBM E-score of 8-mer for input AACCTTCA -0.0641

// returns reported PBM E-score of 8-mer for input ATAGGCTC -0.167
